Kindly supply the reported Population Mitochondria Different-Phenotype (%) values for the records listed here.
# Tested on: Fibroblast
# Assay Text: Multiplex assay against human fibroblast
# Assay type: toxicity, cell-based
# Condition Context: 12 h, 10 µM, compound concentration 10 uM, replicate 2
Quick note: number first, unit second.

Recorded Population Mitochondria Different-Phenotype (%) for Cc1cc2c(cc1N1C(=O)c3cccc4c(CCCO)ccc(c34)C1=O)n(C)c(=O)n2C with Fibroblast, please?
77%

Recorded Population Mitochondria Different-Phenotype (%) for Nc1ccc(C(=O)Nc2cccc(-c3nc(N4CCOCC4)c4oc5ncccc5c4n3)c2)cn1 with Fibroblast, please?
76%

Recorded Population Mitochondria Different-Phenotype (%) for CCc1cc2c(cc1CC)CC(NC[C@H](O)c1ccc(O)c3[nH]c(=O)ccc13)C2 with Fibroblast, please?
98%

Recorded Population Mitochondria Different-Phenotype (%) for CCCn1c(=O)c2[nH]c(C34CC5CC(CC3C5)C4)nc2n(CCC)c1=O with Fibroblast, please?
73%

Recorded Population Mitochondria Different-Phenotype (%) for CCC(=O)O[C@]1(C(=O)SCF)[C@H](C)C[C@H]2[C@@H]3C[C@H](F)C4=CC(=O)C=C[C@]4(C)[C@@]3(F)[C@@H](O)C[C@@]21C [FLUTICASONE PROPIONATE] with Fibroblast, please?
37%

Recorded Population Mitochondria Different-Phenotype (%) for Cc1cn(-c2cc(NC(=O)c3ccc4c(c3)CN(c3cncnc3)C[C@@H]4C)cc(C(F)(F)F)c2)cn1 with Fibroblast, please?
50%

Recorded Population Mitochondria Different-Phenotype (%) for CCOc1cc2ncc(C#N)c(Nc3ccc(OCc4cccc(F)c4)c(Cl)c3)c2cc1NC(=O)/C=C/CN(C)C with Fibroblast, please?
26%

Recorded Population Mitochondria Different-Phenotype (%) for O=C(O)c1ccc2cc(-c3ccc(O)c(C45CC6CC(CC(C6)C4)C5)c3)ccc2c1 with Fibroblast, please?
16%

Recorded Population Mitochondria Different-Phenotype (%) for CNc1oc(-c2cccc3ccccc23)nc1C#N with Fibroblast, please?
3%

Each recorded value in this set is attributed to ChEMBL document CHEMBL4689842.
